Reference for the values: the supplement of paper PMC7877785

# reported self-splicing fitness (ln); entries follow
# TEST_DETAILS: self-splicing fitness, log relative to wild type (ln ratio); higher = more splicing; Tetrahymena group I intron in knt gene, E. coli kanamycin selection, DiMSum; sequences stand for … in CUCUCU…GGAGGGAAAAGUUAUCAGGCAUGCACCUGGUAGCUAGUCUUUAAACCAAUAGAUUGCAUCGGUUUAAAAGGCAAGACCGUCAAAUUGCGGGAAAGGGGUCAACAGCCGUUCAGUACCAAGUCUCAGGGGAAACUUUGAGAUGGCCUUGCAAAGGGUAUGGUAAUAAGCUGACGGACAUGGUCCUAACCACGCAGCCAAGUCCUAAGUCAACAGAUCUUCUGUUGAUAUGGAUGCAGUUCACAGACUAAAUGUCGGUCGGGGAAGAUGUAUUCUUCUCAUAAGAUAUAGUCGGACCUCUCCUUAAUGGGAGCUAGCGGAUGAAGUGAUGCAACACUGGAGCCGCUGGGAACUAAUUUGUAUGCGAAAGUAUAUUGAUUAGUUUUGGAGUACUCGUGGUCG;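 note: selection with 25 µg/mL kanamycin versus none on LB agar overnight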
# STUDY_CONDITIONS: 30 °C
Give the figure by itself; no unit, no explanation.

Solved entries:
>>> print(df.to_string())
            biosequence                   parameter  measured_result
0  UCUAAGCAAUAUUACGAAGU  self-splicing fitness (ln)            -1.09
1  UUACAGCAAUAUUACGGAAU  self-splicing fitness (ln)            -3.68
2  AUCCAGCAAUAUUACGUGAC  self-splicing fitness (ln)            -1.03

Please give the measured self-splicing fitness (ln) for this sequence: AGGCAGCAAUAUUACGCAAU
-2.26
